# assay-overview: Brain tumor tissue, plasma and CSF concentration at resection, CC-90010-GBM-001
# Type: in vivo, human
# condition-notes: human, brain tumor tissue, 30 mg; as stated in the comparison with other agents; read-out: brain tumor tissue:plasma ratio
measured-metric: Kp
Just the number, please.

In: Give its Kp value. Item: Cn1cc(-c2cc(S(C)(=O)=O)ccc2OCC2CC2)c2ccccc2c1=O [Compound A]
Out: 0.14

====

# assay-overview: Plasma pharmacokinetics of Compound A, CC-90010-GBM-002
# Format: in vivo, human
# Set-up: concentration or dose not given beside the values
# condition-notes: human, plasma, oral, D1; Part A; geometric mean; read-out: AUC24
measured-metric: AUC (ng·h/mL)
Give the value, in units of ng·h/mL, as a plain number.

In: Which AUC is reported for this compound? Cn1cc(-c2cc(S(C)(=O)=O)ccc2OCC2CC2)c2ccccc2c1=O
Out: 4580

====

# assay-overview: Plasma pharmacokinetics of Compound A, CC-90010-GBM-002
# Assay type: in vivo, human
# condition-notes: human, plasma, oral, D1; GBM-002 (Part B) (n = 17); geometric mean; read-out: Cmax
# Description: The primary objectives of the study in this example were to establish the safety, maximum tolerated dose (MTD), and recommended phase 2 dose (RP2D) of Compound A. The preliminary efficacy, pharmacokinetics, and pharmacodynamics were also investigated. The study described in this example (CC-90010-GBM-002/NCT04324840) is a phase 1B dose-finding study investigating standard of care of Compound A in combination with TMZ with or without radiotherapy (RT) in subjects with newly diagnosed GBM. […]
measured-metric: Cmax (ng/mL)
# value in ng/mL; strip the unit string

In: Record request: Cmax value, item Cn1cc(-c2cc(S(C)(=O)=O)ccc2OCC2CC2)c2ccccc2c1=O
Out: 350

====

# assay-overview: Plasma pharmacokinetics of Compound A, CC-90010-GBM-002
# Format: in vivo, human
# condition-notes: human, plasma, oral; read-out: mean terminal half-life
# Source text: The primary objectives of the study in this example were to establish the safety, maximum tolerated dose (MTD), and recommended phase 2 dose (RP2D) of Compound A. The preliminary efficacy, pharmacokinetics, and pharmacodynamics were also investigated. The study described in this example (CC-90010-GBM-002/NCT04324840) is a phase 1B dose-finding study investigating standard of care of Compound A in combination with TMZ with or without radiotherapy (RT) in subjects with newly diagnosed GBM. […]
measured-metric: half-life

In: # lookup: half-life of Cn1cc(-c2cc(S(C)(=O)=O)ccc2OCC2CC2)c2ccccc2c1=O [Compound A]
Out: 60 to 70 h

====

# assay-overview: Plasma pharmacokinetics of Compound A, CC-90010-GBM-002
# Type: in vivo, human
# Design: concentration or dose not given beside the values
# condition-notes: human, plasma, oral, LD; Part A; geometric mean; read-out: AUC24
measured-metric: AUC (ng·h/mL)
Dear colleague, please return just the value in ng·h/mL, with no unit written.

In: Look up AUC for this compound: Cn1cc(-c2cc(S(C)(=O)=O)ccc2OCC2CC2)c2ccccc2c1=O
Out: 13900

====

# assay-overview: Plasma pharmacokinetics of Compound A, CC-90010-GBM-002
# Format: in vivo, human
# Parameters: concentration or dose not given beside the values
# condition-notes: human, plasma, oral, LD; Part A; geometric mean
measured-metric: AUC(0-inf) (ng·h/mL)
# value in ng·h/mL; strip the unit string

In: Need AUC(0-inf), item Cn1cc(-c2cc(S(C)(=O)=O)ccc2OCC2CC2)c2ccccc2c1=O
Out: 49800

====

# assay-overview: Plasma pharmacokinetics of Compound A, CC-90010-GBM-002
# Type: in vivo, human
# Parameters: concentration or dose not given beside the values
# condition-notes: human, plasma, oral, LD; Part B; geometric mean; read-out: AUC24
measured-metric: AUC (ng·h/mL)
The reply should contain only the number, in ng·h/mL.

In: Name the recorded AUC for Cn1cc(-c2cc(S(C)(=O)=O)ccc2OCC2CC2)c2ccccc2c1=O [Compound A] .
Out: 12700

====

# assay-overview: Plasma pharmacokinetics of Compound A, CC-90010-GBM-002
# Type: in vivo, human
# condition-notes: human, plasma, oral, LD; Part B; mean; read-out: T1/2 (converted)
measured-metric: half-life (h)
Quick reminder: number only, in h, skip the unit.

In: For the compound shown here, Cn1cc(-c2cc(S(C)(=O)=O)ccc2OCC2CC2)c2ccccc2c1=O , give the reported half-life.
Out: 58

====

# assay-overview: Plasma pharmacokinetics of Compound A, CC-90010-GBM-002
# Type: in vivo, human
# Set-up: concentration or dose not given beside the values
# condition-notes: human, plasma, oral, D1; Part B; geometric mean; read-out: AUC24
measured-metric: AUC (ng·h/mL)
Note: unit ng·h/mL is implicit; provide only the numeric part.

In: Name the reported AUC value associated with the molecule Cn1cc(-c2cc(S(C)(=O)=O)ccc2OCC2CC2)c2ccccc2c1=O
Out: 4890

====

# assay-overview: Plasma pharmacokinetics of Compound A, CC-90010-GBM-002
# Format: in vivo, human
# Parameters: concentration or dose not given beside the values
# condition-notes: human, plasma, oral, LD; Part B; geometric mean
measured-metric: AUC(0-inf) (ng·h/mL)
Hi! Could you send only the number? It should be in ng·h/mL, unit omitted.

In: Report AUC(0-inf) for Cn1cc(-c2cc(S(C)(=O)=O)ccc2OCC2CC2)c2ccccc2c1=O please.
Out: 48700
